# Assay text: self-splicing fitness, log relative to wild type (ln ratio); higher = more splicing; Tetrahymena group I intron in knt gene, E. coli kanamycin selection, DiMSum; sequences stand for … in CUCUCU…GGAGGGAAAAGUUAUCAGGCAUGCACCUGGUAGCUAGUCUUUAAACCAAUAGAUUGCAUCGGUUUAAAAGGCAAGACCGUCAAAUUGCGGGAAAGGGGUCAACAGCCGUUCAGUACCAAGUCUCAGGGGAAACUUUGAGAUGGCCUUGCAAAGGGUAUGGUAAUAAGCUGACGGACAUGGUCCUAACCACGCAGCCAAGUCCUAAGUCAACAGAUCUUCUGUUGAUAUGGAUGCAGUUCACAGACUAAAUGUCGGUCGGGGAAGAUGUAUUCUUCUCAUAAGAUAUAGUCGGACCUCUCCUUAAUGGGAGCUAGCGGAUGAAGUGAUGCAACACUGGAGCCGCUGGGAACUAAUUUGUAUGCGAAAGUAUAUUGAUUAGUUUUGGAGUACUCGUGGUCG;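 note: selection with 25 µg/mL kanamycin versus none on LB agar overnight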
# Applied conditions: 30 °C
Metric: self-splicing fitness (ln)
Give bare numbers.

sequence_content=AGCGAGCAAUAUUACGAGGU observed_value=-3.69
sequence_content=AACAAGCAAUAUUACGGAGA observed_value=-3.58
sequence_content=UUGAAGCAAUAUUACGCCUU observed_value=-2.96

Batch lookup, self-splicing fitness (ln) per entry.
1. AUUUAGCAAUAUUACGAGCC
2. AGGUAGCAAUAUUACGACGU

[-1.74, 0.156]

Batch lookup, self-splicing fitness (ln) per entry.
1. AACUAGCAAUAUUACGCUUU
2. AGGCAGCAAUAUUACGCGCC
3. GGAUAGCAAUAUUACGACUA
4. CGCAAGCAAUAUUACGCGAU
5. CCCAAGCAAUAUUACGACUG

-2.44
-2.4
-1.37
-3.15
-3.41

Batch lookup, self-splicing fitness (ln) per entry.
1. UCACAGCAAUAUUACGUGCG
2. UGUGAGCAAUAUUACGUUUA
3. GAACAGCAAUAUUACGACAC
4. GCUCAGCAAUAUUACGAAAG
5. GCUAAGCAAUAUUACGCUCU
6. UGUUAGCAAUAUUACGUCGC

1: -0.577; 2: -2.98; 3: -0.422; 4: -1.71; 5: -1.11; 6: -3.73

Batch lookup, self-splicing fitness (ln) per entry.
1. GGUCAGCAAUAUUACGGAAG
2. CACAAGCAAUAUUACGCCGC

[-2.27, -2.66]
